Cited source for all entries: patent US20240116985A1

testedOn: T1, B-cat-Halo (beta-catenin HaloTag construct transfected into HEK293 cells) (UniProt P35222 1-781)
T1 sequence (looked up): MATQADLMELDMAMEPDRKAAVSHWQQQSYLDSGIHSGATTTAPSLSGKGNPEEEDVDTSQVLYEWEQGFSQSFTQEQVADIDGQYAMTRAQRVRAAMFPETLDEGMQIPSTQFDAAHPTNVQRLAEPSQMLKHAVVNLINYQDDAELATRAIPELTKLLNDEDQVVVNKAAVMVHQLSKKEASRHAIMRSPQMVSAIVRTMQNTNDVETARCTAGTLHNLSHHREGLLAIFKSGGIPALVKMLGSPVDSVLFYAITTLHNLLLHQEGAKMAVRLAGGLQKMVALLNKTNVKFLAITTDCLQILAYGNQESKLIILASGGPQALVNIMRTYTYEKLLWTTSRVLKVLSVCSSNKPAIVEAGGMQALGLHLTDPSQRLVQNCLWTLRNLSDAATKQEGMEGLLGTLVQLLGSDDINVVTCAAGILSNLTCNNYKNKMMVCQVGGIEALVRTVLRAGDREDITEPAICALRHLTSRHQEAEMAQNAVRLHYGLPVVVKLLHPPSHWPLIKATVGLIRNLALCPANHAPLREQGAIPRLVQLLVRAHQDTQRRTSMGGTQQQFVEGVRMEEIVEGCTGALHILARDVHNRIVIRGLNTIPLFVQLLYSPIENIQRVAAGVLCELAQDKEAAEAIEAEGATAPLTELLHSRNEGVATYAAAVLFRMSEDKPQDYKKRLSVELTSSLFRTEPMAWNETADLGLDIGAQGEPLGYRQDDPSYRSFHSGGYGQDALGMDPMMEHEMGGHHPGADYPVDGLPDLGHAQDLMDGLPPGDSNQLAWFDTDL
testDescription: cell-based or functional assay
Starred links: 1 amine or outer side, 2 acyl side, 3 side chain; linkers in the order of their positions; H or OH if unused. Positions of bridges follow the written chain, without caps; N, C: chain ends. Non-standard residues stand in square brackets, D forms with d. Primed or numbered codes have the meaning given here. B5(4) = 2,2-bis(4-pentenyl)glycine = 2-amino-2-(pent-4-en-1-yl)hept-6-enoic acid (stitching residue), C=CCCCC(CCCC=C)(N[*:1])C(=O)[*:2]; Phe(3-COOH) = N[C@@H](Cc1cccc(C(=O)O)c1)C(=O)O; Bta = N[C@@H](Cc1csc2ccccc12)C(=O)O; αAllylPro = C=CC[C@@]1(C(=O)O)CCCN1; tBuAla = CC(C)(C)C[C@H](N)C(=O)O; 3Thi = N[C@@H](Cc1ccsc1)C(=O)O; PyrS2(4) = not defined here; Aib = CC(C)(N)C(=O)O
reportedEndpoint: NanoBRET Abs IC50
Could you kindly put the unit after your number?

Query block: Quick check: NanoBRET Abs IC50 of Ac-[αAllylPro]D[tBuAla][B5(4)]D[Phe(3-COOH)]KAFL[PyrS2(4)][3Thi][Bta]A-NH2 (staple 1-4, 4-11; not fully specified; printed as Ac-PL3-Asp-Npg-B5-Asp-3COOHF-Lys-Ala-Phe-Leu-PyrS2-3Thi-BztA-Ala-NH2; reading uncertain) [I-1917] ?
Result block: 37.7 µM

Query block: Quick check: NanoBRET Abs IC50 of Ac-[αAllylPro]D[tBuAla][B5(4)]D[Phe(3-COOH)][Aib]AFL[PyrS2(4)][3Thi][Bta]A-NH2 (staple 1-4, 4-11; not fully specified; printed as Ac-PL3-Asp-Npg-B5-Asp-3COOHF-Aib-Ala-Phe-Leu-PyrS2-3Thi-BztA-Ala-NH2; reading uncertain) [I-1920] ?
Result block: 3.1 µM

Query block: Quick check: NanoBRET Abs IC50 of Ac-[αAllylPro]D[tBuAla][B5(4)]D[Phe(3-COOH)]QAFL[PyrS2(4)][3Thi][Bta]A-NH2 (staple 1-4, 4-11; not fully specified; printed as Ac-PL3-Asp-Npg-B5-Asp-3COOHF-Gln-Ala-Phe-Leu-PyrS2-3Thi-BztA-Ala-NH2; reading uncertain) [I-1918] ?
Result block: 4 µM
